Collected inhibition values appear next to each entry.
# Assayed Target: Virion infectivity factor (Human immunodeficiency virus type 1 group M subtype B (isolate BH10)) + Virion infectivity factor (Human immunodeficiency virus type 1 group M subtype B (isolate BRU/LAI)) + Virion infectivity factor (Human immunodeficiency virus type 1 group M subtype B (isolate PCV12)) + Virion infectivity factor (Human immunodeficiency virus type 1 group M subtype B (isolate HXB2)) + DNA dC->dU-editing enzyme APOBEC-3G (Homo sapiens) (UniProt P69720+P69721+P69722+P69723+Q9HC16)
# Experiment Notes: inhibitors of Vif binding to APOBEC3G peptide, primary screen, biochemical, TR-FRET, GST-Vif 1-94, biotin-A3G peptide, dose response retest (AID 1117319);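 further: Vif residues 1-94 fused to GST binding biotinylated APOBEC3G peptide 110-148; 0% = full assay without inhibitor and 100% = GST in place of GST-Vif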
# Condition: hits give high values
Hit rate of the full screen: of about 260,000 compounds, about 1,500 (0.58%) were called active. Not shown: some 5% with an inconclusive outcome. These entries were drawn from the full list. Potency and affinity values are given separately.
// note: answer is a bare numeric in %

Before answering, review these 5 worked examples.
Compound | Readout Value
N#CCCN(Cc1ccccc1)C(=O)c1nccnc1C(=O)O | -11
Cc1ccc(-c2cc(C(=O)OCC(=O)N(C)C3CCS(=O)(=O)C3)c3ccccc3n2)c(C)c1 (stereo not given) | 5.39
CCNC(=O)COC(=O)c1cc(-c2ccc(OC)cc2)nc2ccccc12 | 17.1
COCCN(C(=O)COC(=O)c1cc2ccccc2cc1O)c1c(N)n(Cc2ccccc2)c(=O)[nH]c1=O | 0.53
Cc1cccc(C)c1NC(=O)COC(=O)c1cccnc1 | 0.67

compound COc1ccc(CN2CCN(c3nc4ccccc4s3)CC2)cc1 , inhibition observed: -11.5

compound CN(C(=O)COC(=O)c1cc(-c2ccc(Cl)s2)nc2ccccc12)C1CCS(=O)(=O)C1 (stereo not given) , inhibition observed: -9.51

compound CCCn1c(N)c(N(CCOC)C(=O)c2cc(-c3ccco3)nc3ccccc23)c(=O)[nH]c1=O , inhibition observed: 22.8

compound O=C(CSc1ccccc1C(=O)O)NC12CC3CC(CC(C3)C1)C2 , inhibition observed: -8.39

compound Cc1ccc(N2C(=O)N(c3ccc(C)cc3)C3CS(=O)(=O)CC32)cc1 (stereo not given) , inhibition observed: -8.71

All values here come from PubChem BioAssay AID1117319.
